molecular target: L-lactate dehydrogenase A chain (Homo sapiens); assay: Inhibition of GS[HiBiT]GS-tagged LDHA (unknown origin) expressed in HEK-293T cells measured after 1 hr by […]; type: cell-based
ENDPOINT_LABEL: IC50 (µM)

| COMPOUND_STRUCTURE_STRING | OBS_VALUE |
| --- | --- |
| NS(=O)(=O)c1ccc(Cc2c(-c3ccc(F)c(C#CCN4CCOCC4)c3)nn(-c3nc(C(=O)O)cs3)c2CC2CC2)cc1F | 5.05 |
| Cc1cc(C#Cc2cccc(-c3nn(-c4nc(C(=O)O)cs4)c(CC4CC4)c3Cc3ccc(S(N)(=O)=O)c(F)c3)c2)c(C)s1 | 0.299 |
| NS(=O)(=O)c1ccc(Cc2c(-c3ccc(F)c(C#CC(F)F)c3)nn(-c3nc(C(=O)O)cs3)c2CC2CC2)cc1F | 0.163 |
| NS(=O)(=O)c1ccc(Cc2c(-c3ccc(F)c(/C=C/C4CCCC4)c3)nn(-c3nc(C(=O)O)cs3)c2CC2CC2)cc1F | 0.108 |
| CC(C)(C)C#Cc1cc(-c2nn(-c3nc(C(=O)O)cs3)c(CC3CC3)c2Cc2ccc(S(N)(=O)=O)c(F)c2)ccc1F | 0.075 |

I. CC(C)(C)c1ccc(C#Cc2cc(-c3nn(-c4nc(C(=O)O)cs4)c(CC4CC4)c3Cc3ccc(S(N)(=O)=O)c(F)c3)ccc2F)s1
II. CC(C)CC#Cc1cc(-c2nn(-c3nc(C(=O)O)cs3)c(CC3CC3)c2Cc2ccc(S(N)(=O)=O)c(F)c2)ccc1F
III. Cc1ccc(C#Cc2cc(-c3nn(-c4nc(C(=O)O)cs4)c(CCC4CC4)c3Cc3ccc(S(N)(=O)=O)c(F)c3)ccc2F)s1
IV. NS(=O)(=O)c1ccc(Cc2c(-c3cccc(C#Cc4ccc(C5CCC5)s4)c3)nn(-c3nc(C(=O)O)cs3)c2CCC2CC2)cc1F
Query: Rank by IC50 (largest to smallest). Please list the labels in the order you were asked to rank them.
Result: I, IV, III, II

----------
target: L-lactate dehydrogenase A chain (Homo sapiens); assay: Inhibition of recombinant human LDHA using sodium pyruvate as substrate preincubated for 5 mins followed by diaphorase/resazurin addition and measured after 20 mins by fluorescence based assay
ENDPOINT_LABEL: IC50 (nM)

| COMPOUND_STRUCTURE_STRING | OBS_VALUE |
| --- | --- |
| NS(=O)(=O)c1ccc(Cc2c(-c3ccc(F)c(C#CC4CCCC4)c3)nn(-c3nc(C(=O)O)cs3)c2CC2CC2)cc1F | 22 |

I. COCC#Cc1cc(-c2nn(-c3nc(C(=O)O)cs3)c(CC3CC3)c2Cc2ccc(S(N)(=O)=O)c(F)c2)ccc1F
II. Cc1ccc(C#Cc2cccc(-c3nn(-c4nc(C(=O)O)cs4)c(CCC4CC4)c3Cc3ccc(S(N)(=O)=O)c(F)c3)c2)s1
III. NS(=O)(=O)c1ccc(Cc2c(-c3cccc(C#Cc4ccc(C5CCC5)s4)c3)nn(-c3nc(C(=O)O)cs3)c2CCC2CC2)cc1F
Query: Rank by IC50 (largest to smallest). Please list the labels in the order you were asked to rank them.
Result: III, II, I
(III: 636 nM, II: 117 nM, I: 8 nM)

----------
tested on: MIA PaCa-2; test: Cytotoxicity against human MIA PaCa-2 cells assessed as reduction in cell viability after 48 hrs by CellTiter-Glo assay; type: functional, cell-based; settings: MIA PaCa-2, 48 h
ENDPOINT_LABEL: IC50 (µM)
Give the value, in units of µM, as a plain number.

| COMPOUND | OBS_VALUE |
| --- | --- |
| Cc1cnc(C#Cc2cccc(-c3nn(-c4nc(C(=O)O)cs4)c(CC4CC4)c3Cc3ccc(S(N)(=O)=O)c(F)c3)c2)s1 | 0.36 |
| NS(=O)(=O)c1ccc(Cc2c(-c3ccc(F)c(C#CC(F)F)c3)nn(-c3nc(C(=O)O)cs3)c2CC2CC2)cc1F | 1.33 |
| NS(=O)(=O)c1ccc(Cc2c(-c3ccc(F)c(C#CCC4CCCO4)c3)nn(-c3nc(C(=O)O)cs3)c2CC2CC2)cc1F (configuration not stated) | 1.23 |

Query: Sample NS(=O)(=O)c1ccc(Cc2c(-c3cccc(-c4ccccc4)c3)nn(-c3nc(C(=O)O)cs3)c2C2CC2(F)F)cc1 (configuration not stated) — what was its IC50?
Result: 17.7

Query: Sample C#Cc1cc(-c2nn(-c3nc(C(=O)O)cs3)c(CC3CC3)c2Cc2ccc(S(N)(=O)=O)c(F)c2)ccc1F — what was its IC50?
Result: 4.03

----------
target: L-lactate dehydrogenase A chain (Homo sapiens, UniProt P00338); assay: Inhibition of LDHA in human A673 cells assessed as decrease in lactate production incubated for 2 hrs by lactate oxidase-coupled fluorescence based assay; type: cell-based
pIC50: −log10 of the molar value.
ENDPOINT_LABEL: pIC50

| COMPOUND_STRUCTURE_STRING | OBS_VALUE |
| --- | --- |
| Cc1ccc(C#Cc2cc(-c3nn(-c4nc(C(=O)O)cs4)c(CCC4CC4)c3Cc3ccc(S(N)(=O)=O)c(F)c3)ccc2F)s1 | 6.41 |
| CCC#Cc1cc(-c2nn(-c3nc(C(=O)O)cs3)c(CC3CC3)c2Cc2ccc(S(N)(=O)=O)c(F)c2)ccc1F | 6.31 |
| Cc1cnc(C#Cc2cccc(-c3nn(-c4nc(C(=O)O)cs4)c(CC4CC4)c3Cc3ccc(S(N)(=O)=O)c(F)c3)c2)o1 | 6.28 |
| NS(=O)(=O)c1ccc(Cc2c(-c3ccc(F)c(/C=C/C4CCCC4)c3)nn(-c3nc(C(=O)O)cs3)c2CC2CC2)cc1F | 6.43 |
| CC(C)(C)c1ccc(C#Cc2cc(-c3nn(-c4nc(C(=O)O)cs4)c(CC4CC4)c3Cc3ccc(S(N)(=O)=O)c(F)c3)ccc2F)s1 | 6.28 |
| Cc1ccc(C#Cc2cccc(-c3nn(-c4nc(C(=O)O)cs4)c(CCC4CC4)c3Cc3ccc(S(N)(=O)=O)c(F)c3)c2)o1 | 6.26 |
| NS(=O)(=O)c1ccc(Cc2c(-c3ccc(F)c(C#CC4CCNCC4)c3)nn(-c3nc(C(=O)O)cs3)c2CC2CC2)cc1F | 4.91 |
| NS(=O)(=O)c1ccc(Cc2c(-c3ccc(F)c(C#CCC4CCCC4)c3)nn(-c3nc(C(=O)O)cs3)c2CC2CC2)cc1F | 6.31 |
| CC(C)(C)C#Cc1cc(-c2nn(-c3nc(C(=O)O)cs3)c(CC3CC3)c2Cc2ccc(S(N)(=O)=O)c(F)c2)ccc1F | 6.85 |
| NS(=O)(=O)c1ccc(Cc2c(-c3cccc(-c4ccccc4)c3)nn(-c3nc(C(=O)O)cs3)c2CC2CC2)c(F)c1 | 5.35 |
| N#CC#Cc1cc(-c2nn(-c3nc(C(=O)O)cs3)c(CC3CC3)c2Cc2ccc(S(N)(=O)=O)c(F)c2)ccc1F | 5.40 |
| CC#Cc1cc(-c2nn(-c3nc(C(=O)O)cs3)c(CC3CC3)c2Cc2ccc(S(N)(=O)=O)c(F)c2)ccc1F | 6.30 |

----------
tested on: MIA PaCa-2; assay: Cytotoxicity against human MIA PaCa-2 cells assessed as reduction in cell viability after 48 hrs by CellTiter-Glo assay; format: functional, cell-based; conditions: MIA PaCa-2, 48 h
# IC50 per entry
Give the value, in units of nM, as a plain number.

Solved entries:
| COMPOUND_STRUCTURE_STRING | IC50 [nM] |
| --- | --- |
| Cc1ccc(C#Cc2cccc(-c3nn(-c4nc(C(=O)O)cs4)c(CC4CC4)c3Cc3ccc(S(N)(=O)=O)c(F)c3)c2)o1 | 296 |
| NS(=O)(=O)c1ccc(Cc2c(-c3ccc(F)c(-c4ccccc4)c3)nn(-c3nc(C(=O)O)cs3)c2CC2CC2)cc1F | 3420 |
| Cn1cc(C#Cc2cc(-c3nn(-c4nc(C(=O)O)cs4)c(CC4CC4)c3Cc3ccc(S(N)(=O)=O)c(F)c3)ccc2F)cn1 | 619 |

Query: Please state recorded IC50 (tested on MIA PaCa-2) of Cc1ccc(C#Cc2cc(-c3nn(-c4nc(C(=O)O)cs4)c(CCC4CC4)c3Cc3ccc(S(N)(=O)=O)c(F)c3)ccc2F)s1
Result: 226

Query: Please state recorded IC50 (tested on MIA PaCa-2) of NS(=O)(=O)c1ccc(Cc2c(-c3cccc(C#Cc4ccc(Cl)s4)c3)nn(-c3nc(C(=O)O)cs3)c2CC2CC2)cc1F
Result: 556

----------
target: UniProt P00338; assay: Inhibition of GS[HiBiT]GS-tagged LDHA (unknown origin) expressed in HEK-293T cells measured after 1 hr by […]; format: cell-based
ENDPOINT_LABEL: IC50 (nM)

| COMPOUND_STRUCTURE_STRING | OBS_VALUE |
| --- | --- |
| Cc1cc(C#Cc2cccc(-c3nn(-c4nc(C(=O)O)cs4)c(CC4CC4)c3Cc3ccc(S(N)(=O)=O)c(F)c3)c2)cs1 | 95 |
| NS(=O)(=O)c1ccc(Cc2c(-c3ccc(F)c(C#CC4CC4)c3)nn(-c3nc(C(=O)O)cs3)c2CC2CC2)cc1F | 100 |
| Cc1ccc(C#Cc2cccc(-c3nn(-c4nc(C(=O)O)cs4)c(CC4CC4)c3Cc3ccc(S(N)(=O)=O)c(F)c3)c2)s1 | 119 |
| NS(=O)(=O)c1ccc(Cc2c(-c3ccc(F)c(C#CCC4CC4)c3)nn(-c3nc(C(=O)O)cs3)c2CC2CC2)cc1F | 89 |
| N#CC#Cc1cc(-c2nn(-c3nc(C(=O)O)cs3)c(CC3CC3)c2Cc2ccc(S(N)(=O)=O)c(F)c2)ccc1F | 474 |
